Recorded cell viability values for a group of compounds are listed next.
# Tested on: Caco-2
# method: cell viability relative to DMSO; higher = less toxic
# particulars: 72 h; 10000 nM

compound	unitText	cell viability
O=C(c1ccccc1)c1ccc2n1CCC2C(=O)O (stereo not given) [ketorolac]	%	91.8
O=C(Nc1cccc(Cl)c1)c1ccccn1	%	102
COc1cccc(C(=O)CCN[C@@H](C)[C@H](O)c2ccccc2)c1 [oxyfedrine]	%	95.8
CC(=O)Nc1c(I)c(C(=O)O)c(I)c(N(C)C(C)=O)c1I [metrizoic-acid]	%	92.8
CCC(C)CCCC(=O)N[C@@H](CCN)C(=O)N[C@H](C(=O)N[C@@H](CCN)C(=O)N[C@H]1CCNC(=O)[C@H]([C@@H](C)O)NC(=O)[C@H](CCN)NC(=O)[C@H](CCN)NC(=O)[C@H](CC(C)C)NC(=O)[C@@H](CC(C)C)NC(=O)[C@H](CCN)NC1=O)[C@@H](C)O (stereo not given in full) [colistin]	%	101

Reference source: the supplement of paper PMC13380429
